Where do these numbers come from? They come from patent US6090787A.

target: Bovine trypsin (Bos taurus); construct: purchased Worthington Biochemicals, Freehold, N.J; test: Serine protease selectivity, Kass, trypsin chromogenic assay; format: biochemical; settings: apparent association constant
Sequence (P00760 24-246): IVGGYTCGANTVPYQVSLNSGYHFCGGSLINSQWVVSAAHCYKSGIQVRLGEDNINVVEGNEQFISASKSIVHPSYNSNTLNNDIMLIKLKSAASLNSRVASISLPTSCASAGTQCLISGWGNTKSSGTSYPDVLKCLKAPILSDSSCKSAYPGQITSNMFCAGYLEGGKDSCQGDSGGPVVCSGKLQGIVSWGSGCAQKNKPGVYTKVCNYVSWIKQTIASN
Square brackets hold non-standard residues; d marks the D form. Peptide text beside a SMILES is read from it. dPip = O=C(O)[C@H]1CCCCN1; NEtG = CCNCC(=O)O; Sar = CNCC(=O)O
Parameter Measured: Enzyme Kass Trypsin (L/mol × 10^6)

- Cl.Cl.NC(N)=NCCC[C@@H](C=O)NC(=O)CN(CCc1ccccc1)C(=O)[C@H]1CCCN1 [Example 18, D--Pro--N(CH2 CH2 Ph)Gly--ArgH.2HCl]: 1.1

I. CN(CC(=O)N[C@H](C=O)CCCNC(=N)N)C(=O)[C@H]1CCCCN1.Cl.Cl [Example 1] (H-[dPip]-[Sar]-Arg-aldehyde)
II. Cl.Cl.N=C(N)NCCC[C@@H](C=O)NC(=O)CN(CCc1ccccc1)C(=O)[C@@H]1CCCN1 [Example 19, L--Pro--N(CH2 CH2 Ph)Gly--ArgH.2HCl]
III. CCN(CC(=O)N[C@H](C=O)CCCNC(=N)N)C(=O)[C@H]1CCCCN1.Cl.Cl [Example 2] (H-[dPip]-[NEtG]-Arg-aldehyde)
IV. Cl.Cl.N=C(N)NCCC[C@@H](C=O)NC(=O)CN(CCCc1ccccc1)C(=O)[C@H]1CCCCN1 [Example 9, D--hPro--N(PhCH2 CH2 CH2)Gly--ArgH.2HCl]
V. Cc1ccccc1N(CC(=O)N[C@H](C=O)CCCN=C(N)N)C(=O)[C@H]1CCCCN1.Cl.Cl [Example 12, D--hPro--N(o--Me--Ph)Gly--ArgH.2HCl]
List by increasing Enzyme Kass Trypsin. In your reply, arrange the labels in the requested order.
II, V, I, III, IV
